- TESTED ON: Factor X, P00742
- Sequence (P00742 whole entry, looked up): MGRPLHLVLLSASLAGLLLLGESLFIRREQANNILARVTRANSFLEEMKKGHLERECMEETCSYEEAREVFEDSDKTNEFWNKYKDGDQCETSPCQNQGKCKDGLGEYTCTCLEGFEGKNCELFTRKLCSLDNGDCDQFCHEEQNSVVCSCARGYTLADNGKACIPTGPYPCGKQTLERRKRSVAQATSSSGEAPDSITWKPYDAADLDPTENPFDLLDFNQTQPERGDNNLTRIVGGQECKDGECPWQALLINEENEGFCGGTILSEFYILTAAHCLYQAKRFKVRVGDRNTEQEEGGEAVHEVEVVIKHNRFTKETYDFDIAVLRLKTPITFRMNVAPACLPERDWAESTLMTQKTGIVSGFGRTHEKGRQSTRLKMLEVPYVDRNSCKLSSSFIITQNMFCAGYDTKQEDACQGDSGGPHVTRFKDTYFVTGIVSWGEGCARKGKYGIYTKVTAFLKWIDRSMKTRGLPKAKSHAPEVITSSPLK
PROPERTY MEASURED: % of WT kcat/KM (%)
Reply with just the number (in %).

• FIXa-K247N/N249S/N260S/R318Y/R338E/R403E/E410N (protein) chain 1: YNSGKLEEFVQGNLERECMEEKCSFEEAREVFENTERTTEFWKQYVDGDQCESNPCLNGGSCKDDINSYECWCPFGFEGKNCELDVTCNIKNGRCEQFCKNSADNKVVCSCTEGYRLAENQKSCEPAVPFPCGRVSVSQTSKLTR chain 2: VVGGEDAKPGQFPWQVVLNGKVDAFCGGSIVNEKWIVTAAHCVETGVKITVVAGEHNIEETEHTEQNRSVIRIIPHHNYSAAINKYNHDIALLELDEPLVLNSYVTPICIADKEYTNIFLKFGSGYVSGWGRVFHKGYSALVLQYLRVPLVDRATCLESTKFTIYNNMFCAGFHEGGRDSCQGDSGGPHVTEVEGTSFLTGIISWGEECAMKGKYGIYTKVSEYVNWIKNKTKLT = 217
• FIXa D104N/K106S/K247N/N249S/N260S (protein) chain 1: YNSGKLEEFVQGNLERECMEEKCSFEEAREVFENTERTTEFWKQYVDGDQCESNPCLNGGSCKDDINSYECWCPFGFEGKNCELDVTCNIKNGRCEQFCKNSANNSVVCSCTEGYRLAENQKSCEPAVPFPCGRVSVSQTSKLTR chain 2: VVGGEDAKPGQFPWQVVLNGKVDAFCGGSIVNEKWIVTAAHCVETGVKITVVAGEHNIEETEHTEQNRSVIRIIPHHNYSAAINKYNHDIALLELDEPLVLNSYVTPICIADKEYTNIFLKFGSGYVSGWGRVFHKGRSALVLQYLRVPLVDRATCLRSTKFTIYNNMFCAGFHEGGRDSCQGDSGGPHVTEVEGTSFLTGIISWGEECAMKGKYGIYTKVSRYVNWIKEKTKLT = 21

For record FIXa-K228N/R318Y/E410N (mature FIX numbering) (protein) chain 1: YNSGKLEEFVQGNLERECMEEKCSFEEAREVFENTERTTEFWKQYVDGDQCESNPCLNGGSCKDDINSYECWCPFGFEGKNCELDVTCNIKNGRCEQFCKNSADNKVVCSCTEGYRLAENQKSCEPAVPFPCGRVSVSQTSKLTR chain 2: VVGGEDAKPGQFPWQVVLNGKVDAFCGGSIVNEKWIVTAAHCVETGVNITVVAGEHNIEETEHTEQKRNVIRIIPHHNYNAAINKYNHDIALLELDEPLVLNSYVTPICIADKEYTNIFLKFGSGYVSGWGRVFHKGYSALVLQYLRVPLVDRATCLRSTKFTIYNNMFCAGFHEGGRDSCQGDSGGPHVTEVEGTSFLTGIISWGEECAMKGKYGIYTKVSRYVNWIKNKTKLT the listed % of WT kcat/KM is 272

For record FIXa-Y155F/K247N/N249S/R318Y/R403E/E410N (protein) chain 1: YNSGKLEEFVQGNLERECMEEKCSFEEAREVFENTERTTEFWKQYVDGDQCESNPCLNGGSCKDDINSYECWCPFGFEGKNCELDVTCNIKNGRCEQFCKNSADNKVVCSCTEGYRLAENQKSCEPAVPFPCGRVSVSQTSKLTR chain 2: VVGGEDAKPGQFPWQVVLNGKVDAFCGGSIVNEKWIVTAAHCVETGVKITVVAGEHNIEETEHTEQNRSVIRIIPHHNYNAAINKYNHDIALLELDEPLVLNSYVTPICIADKEYTNIFLKFGSGYVSGWGRVFHKGYSALVLQYLRVPLVDRATCLRSTKFTIYNNMFCAGFHEGGRDSCQGDSGGPHVTEVEGTSFLTGIISWGEECAMKGKYGIYTKVSEYVNWIKNKTKLT the listed % of WT kcat/KM is 22

All values here come from patent US20210238260.
